Molecular target: OR1A1 (Homo sapiens)
Assay: Dual-Glo luciferase reporter gene assay, OR1A1 in Hana3A cells
Format: cell-based
Parameters: The open reading frames of ORs were amplified using Phusion polymerase; Rho-tag (first 20 amino acids of human rhodopsin) (N); expressed in transfected cells; host or cells: Hana3A cells (derived from HEK293T), pCI vector; co-transfected with human RTP1S, M3 receptor, CRE-Luc and SV40-RL
Conditions: OR1A1; log(agonist) vs. response (three parameters); 95% CI (profile likelihood); normalized (L-400/R-400)
Entries and their measured Bottom follow.

Recorded Bottom, per entry:
{"molecule": "C=C(C)[C@H]1CC=C(C)CC1", "Bottom": "0.9206 to 2.078"}
{"molecule": "O=C(c1ccccc1)c1ccccc1", "Bottom": "-1.851 to 2.543"}
{"molecule": "CCOC(=O)Cc1cccc(Br)c1 [Ethyl 2-(3-bromophenyl)acetate]", "Bottom": "0.4401 to 2.007"}
{"molecule": "COC(=O)Cc1ccccc1C [Methyl 2-(2-methylphenyl)acetate]", "Bottom": "0.03511 to 1.535"}

Lab note: next molecule to report on.
In: Indicate the recorded Bottom value for this molecule: `c1cnc2c(c1)ccc1cccnc12`
Out: 1.108 to 2.224

* * *

Target: UniProt Q9Y3N9
Sequence (Q9Y3N9 whole entry): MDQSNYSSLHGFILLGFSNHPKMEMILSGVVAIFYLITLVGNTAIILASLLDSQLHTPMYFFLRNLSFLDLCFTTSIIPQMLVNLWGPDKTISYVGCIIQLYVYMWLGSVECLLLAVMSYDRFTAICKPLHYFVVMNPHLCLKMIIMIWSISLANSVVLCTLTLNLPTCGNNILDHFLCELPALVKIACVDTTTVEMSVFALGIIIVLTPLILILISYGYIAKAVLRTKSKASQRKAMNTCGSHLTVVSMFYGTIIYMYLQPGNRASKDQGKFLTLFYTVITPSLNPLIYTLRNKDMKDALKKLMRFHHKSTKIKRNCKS
Assay: Dual-Glo luciferase reporter gene assay, OR2W1 in Hana3A cells
Conditions: OR2W1; three-parameter fit; 95% CI (profile likelihood)
pEC50: −log10 of the molar value.
measurementLabel: pEC50

In: Indicate the recorded pEC50 value for this compound: `CCOc1ccc2ccccc2c1`
Out: 5.52 to 6.18

* * *

Target: OR1A1 (Homo sapiens, UniProt Q9P1Q5)
Sequence (Q9P1Q5 whole entry): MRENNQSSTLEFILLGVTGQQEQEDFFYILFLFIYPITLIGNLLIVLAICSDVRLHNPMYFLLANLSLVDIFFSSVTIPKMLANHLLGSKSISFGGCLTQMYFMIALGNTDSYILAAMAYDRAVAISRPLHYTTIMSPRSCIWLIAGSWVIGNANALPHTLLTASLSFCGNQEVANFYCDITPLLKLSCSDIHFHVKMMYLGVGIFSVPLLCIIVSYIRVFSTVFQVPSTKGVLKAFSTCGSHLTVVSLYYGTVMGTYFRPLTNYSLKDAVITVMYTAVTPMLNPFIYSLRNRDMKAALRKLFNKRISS
Test: Dual-Glo luciferase reporter gene assay, OR1A1 in Hana3A cells
Assay type: cell-based
Set-up: The open reading frames of ORs were amplified using Phusion polymerase; Rho-tag (first 20 amino acids of human rhodopsin) (N); expressed in transfected cells; host or cells: Hana3A cells (derived from HEK293T), pCI vector; co-transfected with human RTP1S, M3 receptor, CRE-Luc and SV40-RL
Conditions: Figure 4A
measurementLabel: activation of OR1A1 in dose-responses

{"compound": "COC(=O)Cc1ccccc1C [Methyl 2-(2-methylphenyl)acetate]", "measurementLabel": "activation of OR1A1 in dose-responses", "valueReported": "able to activate OR1A1"}
{"compound": "CCOC(=O)Cc1cccc(Br)c1 [Ethyl 2-(3-bromophenyl)acetate]", "measurementLabel": "activation of OR1A1 in dose-responses", "valueReported": "able to activate OR1A1"}

* * *

Entries and their measured EC50 follow.
Target: OR1A1 (Homo sapiens)
Test: Dual-Glo luciferase reporter gene assay, OR1A1 in Hana3A cells
Format: cell-based
Parameters: The open reading frames of ORs were amplified using Phusion polymerase; Rho-tag (first 20 amino acids of human rhodopsin) (N); expressed in transfected cells; host or cells: Hana3A cells (derived from HEK293T), pCI vector; co-transfected with human RTP1S, M3 receptor, CRE-Luc and SV40-RL
Conditions: OR1A1; three-parameter fit; 95% CI (profile likelihood)
Procedure: Hana3A cells were maintained in minimal essential medium containing 10% FBS (vol/vol) with penicillin-streptomycin and amphotericin B (1/200 each vol/vol) at 37 °C and 5% CO2. […] The Dual-Glo luciferase assay system (Promega, Madison, WI, USA) was used to evaluate the functionality of wild-type OR1A1 and OR2W1 in an in vitro system. The open reading frames of ORs were amplified using Phusion polymerase (Thermo Fisher Scientific, Waltham, MA, USA). […]

Recorded EC50, per entry:
{"compound": "COC(=O)Cc1ccccc1C [Methyl 2-(2-methylphenyl)acetate]", "EC50": "12.2 to 25 µM"}
{"compound": "C=C(C)[C@H]1CC=C(C)CC1 [Dipentene]", "EC50": "44.9 to 133 µM"}

In: Indicate the recorded EC50 value for this compound: CCOC(=O)Cc1cccc(Br)c1 [Ethyl 2-(3-bromophenyl)acetate]
Out: 11.5 to 24.4 µM

In: Indicate the recorded EC50 value for this compound: O=C(c1ccccc1)c1ccccc1 [Benzophenone]
Out: 2.47 to 8.3 µM
